tested on: hTERT-HMEC; test: percentage of EdU-negative (G0-arrested) nuclei per well, 72 h; higher = more G0 arrest; details: protein concentration 0.0225 µM; reference: sequence is the full UniProt precursor, the tested protein was the secreted form or ectodomain;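 note: secreted proteins added to cultured cells, EdU pulse at the end, nuclei found by Hoechst imaging, EdU status from nuclear versus surrounding ring intensity ratio, PBS as neutral control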
MEASUREMENT KIND: percentage of EdU-negative (%)
Give just the number in %; leave the unit off.

Reported percentage of EdU-negative ( `MWWRVLSLLAWFPLQEASLTNHTETITVEEGQTLTLKCVTSLRKNSSLQWLTPSGFTIFLNEYPALKNSKYQLLHHSANQLSITVPNVTLQDEGVYKCLHYSDSVSTKEVKVIVLATPFKPILEASVIRKQNGEEHVVLMCSTMRSKPPPQITWLLGNSMEVSGGTLHEFETDGKKCNTTSTLIIHTYGKNSTVDCIIRHRGLQGRKLVAPFRFEDLVTDEETASDALERNSLSSQDPQQPTSTVSVTEDSSTSEIDKEEKEQTTQDPDLTTEANPQYLGLARKKSGILLLTLVSFLIFILFIIVQLFIMKLRKAHVIWKKENEVSEHTLESYRSRSNNEETSSEEKNGQSSHPMRCMNYITKLYSEAKTKRKENVQHSKLEEKHIQVPESIV` ) = 4.57

====

tested on: hTERT-HMEC; assay: percentage of EdU-negative (G0-arrested) nuclei per well, 72 h; higher = more G0 arrest; details: protein concentration 0.0225 µM; reference: sequence is the full UniProt precursor, the tested protein was the secreted form or ectodomain
MEASUREMENT KIND: percentage of EdU-negative (%)
Give just the number in %; leave the unit off.

Reported percentage of EdU-negative ( MCVTYHNGTGYCKCPEGFLGEYCQHRDPCEKNRCQNGGTCVAQAMLGKATCRCASGFTGEDCQYSTSHPCFVSRPCLNGGTCHMLSRDTYECTCQVGFTGKECQWTDACLSHPCANGSTCTTVANQFSCKCLTGFTGQKCETDVNECDIPGHCQHGGTCLNLPGSYQCQCLQGFTGQYCDSLYVPCAPSPCVNGGTCRQTGDFTFECNCLPETVRRGTELWERDREVWNGKEHDEN [Q7Z3S9] ) = 5.34

Reported percentage of EdU-negative ( MKPALLEVMRMNRICRMVLATCLGSFILVIFYFQSMLHPVMRRNPFGVDICCRKGSRSPLQELYNPIQLELSNTAVLHQMRRDQVTDTCRANSATSRKRRVLTPNDLKHLVVDEDHELIYCYVPKVACTNWKRLMMVLTGRGKYSDPMEIPANEAHVSANLKTLNQYSIPEINHRLKSYMKFLFVREPFERLVSAYRNKFTQKYNISFHKRYGTKIIKRQRKNATQEALRKGDDVKFEEFVAYLIDPHTQREEPFNEHWQTVYSLCHPCHIHYDLVGKYETLEEDSNYVLQLAGVGSYLKFPTYAKSTRTTDEMTTEFFQNISSEHQTQLYEVYKLDFLMFNYSVPSYLKLE [Q9NPF2] ) = 5.07

Reported percentage of EdU-negative ( MDMAWQMMQLLLLALVTAAGSAQPRSARARTDLLNVCMNAKHHKTQPSPEDELYGQCSPWKKNACCTASTSQELHKDTSRLYNFNWDHCGKMEPTCKRHFIQDSCLYECSPNLGPWIRQVNQSWRKERILNVPLCKEDCERWWEDCRTSYTCKSNWHKGWNWTSGINECPAGALCSTFESYFPTPAALCEGLWSHSFKVSNYSRGSGRCIQMWFDSAQGNPNEEVAKFYAAAMNAGAPSRGIIDS [A0A087WXL1] ) = 5.28

Reported percentage of EdU-negative ( MLPPMALPSVSWMLLSCLILLCQVQGEETQKELPSPRISCPKGSKAYGSPCYALFLSPKSWMDADLACQKRPSGKLVSVLSGAEGSFVSSLVRSISNSYSYIWIGLHDPTQGSEPDGDGWEWSSTDVMNYFAWEKNPSTILNPGHCGSLSRSTGFLKWKDYNCDAKLPYVCKFKD [Q6UW15] ) = 4.59

Reported percentage of EdU-negative ( MKFTTLLFLAAVAGALVYAEDASSDSTGADPAQEAGTSKPNEEISGPAEPASPPETTTTAQETSAAAVQGTAKVTSSRQELNPLKSIVEKSILLTEQALAKAGKGMHGGVPGGKQFIENGSEFAQKLLKKFSLLKPWA [Q9GZZ8] ) = 4.93

Reported percentage of EdU-negative ( MNGFASLLRRNQFILLVLFLLQIQSLGLDIDSRPTAEVCATHTISPGPKGDDGEKGDPGEEGKHGKVGRMGPKGIKGELGDMGDQGNIGKTGPIGKKGDKGEKGLLGIPGEKGKAGTVCDCGRYRKFVGQLDISIARLKTSMKFVKNVIAGIRETEEKFYYIVQEEKNYRESLTHCRIRGGMLAMPKDEAANTLIADYVAKSGFFRVFIGVNDLEREGQYMFTDNTPLQNYSNWNEGEPSDPYGHEDCVEMLSSGRWNDTECHLTMYFVCEFIKKKK [Q9Y6Z7] ) = 5.32

====

Item-by-item account of percentage of EdU-negative
tested on: hTERT-HMEC; test: percentage of EdU-negative (G0-arrested) nuclei per well, 72 h; higher = more G0 arrest; settings: protein concentration 0.225 µM; reference: sequence is the full UniProt precursor, the tested protein was the secreted form or ectodomain
Give just the number in %; leave the unit off.

Record excerpt, results attached:
RESIDUE STRING	percentage of EdU-negative (%)
MRLLCGLWLWLSLLKVLQAQTPTPLPLPPPMQSFQGNQFQGEWFVLGLAGNSFRPEHRALLNAFTATFELSDDGRFEVWNAMTRGQHCDTWSYVLIPAAQPGQFTVDHGVEPGADREETRVVDSDYTQFALMLSRRHTSRLAVLRISLLGRSWLLPPGTLDQFICLGRAQGLSDDNIVFPDVTGWSPQASVC [Q6JVE5]	5.1
MGPPSASPHRECIPWQGLLLTASLLNFWNPPTTAKLTIESMPLSVAEGKEVLLLVHNLPQHLFGYSWYKGERVDGNSLIVGYVIGTQQATPGAAYSGRETIYTNASLLIQNVTQNDIGFYTLQVIKSDLVNEEATGQFHVYQENAPGLPVGAVAGIVTGVLVGVALVAALVCFLLLAKTGRTSIQRDLKEQQPQALAPGRGPSHSSAFSMSPLSTAQAPLPNPRTAASIYEELLKHDTNIYCRMDHKAEVAS	5.03
MLPAAMKGLGLALLAVLLCSAPAHGLWCQDCTLTTNSSHCTPKQCQPSDTVCASVRITDPSSSRKDHSVNKMCASSCDFVKRHFFSDYLMGFINSGILKVDVDCCEKDLCNGAAGAGHSPWALAGGLLLSLGPALLWAGP	5.48

Let us move to another entry and its percentage of EdU-negative.
Tested on hTERT-HMEC: `MVMLLLLLSALAGLFGAAEGQAFHLGKCPNPPVQENFDVNKYLGRWYEIEKIPTTFENGRCIQANYSLMENGKIKVLNQELRADGTVNQIEGEATPVNLTEPAKLEVKFSWFMPSAPYWILATDYENYALVYSCTCIIQLFHVDFAWILARNPNLPPETVDSLKNILTSNNIDVKKMTVTDQVNCPKLS` . Observed percentage of EdU-negative: 4.75

====

tested on: MCF7; assay: percentage of EdU-negative (G0-arrested) nuclei per well, 72 h; higher = more G0 arrest; conditions: protein concentration 0.225 µM; reference: sequence is the full UniProt precursor, the tested protein was the secreted form or ectodomain
Item-by-item account of percentage of EdU-negative
Give just the number in %; leave the unit off.

Record excerpt, results attached:
RESIDUE STRING	MEASUREMENT KIND	MEASURED VALUE
MAASRWARKAVVLLCASDLLLLLLLLPPPGSCAAEGSPGTPDESTPPPRKKKKDIRDYNDADMARLLEQWEKDDDIEEGDLPEHKRPSAPVDFSKIDPSKPESILKMTKKGKTLMMFVTVSGSPTEKETEEITSLWQGSLFNANYDVQRFIVGSDRAIFMLRDGSYAWEIKDFLVGQDRCADVTLEGQVYPGKGGGSKEKNKTKQDKGKKKKEGDLKSRSSKEENRAGNKREDL	percentage of EdU-negative	27.3
MVATKTFALLLLSLFLAVGLGEKKEGHFSALPSLPVGSHAKVSSPQPRGPRYAEGTFISDYSIAMDKIHQQDFVNWLLAQKGKKNDWKHNITQREARALELASQANRKEEEAVEPQSSPAKNPSDEDLLRDLLIQELLACLLDQTNLCRLRSR	percentage of EdU-negative	24.3
MRAAGTLLAFCCLVLSTTGGPSPDTCSQDLNSRVKPGFPKTIKTNDPGVLQAARYSVEKFNNCTNDMFLFKESRITRALVQIVKGLKYMLEVEIGRTTCKKNQHLRLDDCDFQTNHTLKQTLSCYSEVWVVPWLQHFEVPVLRCH	percentage of EdU-negative	27.2

Let us move to another entry and its percentage of EdU-negative.
Reported percentage of EdU-negative ( `MNLAISIALLLTVLQVSRGQKVTSLTACLVDQSLRLDCRHENTSSSPIQYEFSLTRETKKHVLFGTVGVPEHTYRSRTNFTSKYNMKVLYLSAFTSKDEGTYTCALHHSGHSPPISSQNVTVLRDKLVKCEGISLLAQNTSWLLLLLLSLSLLQATDFMSL` ) = 26.6
